Target: HDAC8 (Homo sapiens, UniProt Q9BY41)
Construct: purchased BPS Bioscience
Sequence (Q9BY41 1-377): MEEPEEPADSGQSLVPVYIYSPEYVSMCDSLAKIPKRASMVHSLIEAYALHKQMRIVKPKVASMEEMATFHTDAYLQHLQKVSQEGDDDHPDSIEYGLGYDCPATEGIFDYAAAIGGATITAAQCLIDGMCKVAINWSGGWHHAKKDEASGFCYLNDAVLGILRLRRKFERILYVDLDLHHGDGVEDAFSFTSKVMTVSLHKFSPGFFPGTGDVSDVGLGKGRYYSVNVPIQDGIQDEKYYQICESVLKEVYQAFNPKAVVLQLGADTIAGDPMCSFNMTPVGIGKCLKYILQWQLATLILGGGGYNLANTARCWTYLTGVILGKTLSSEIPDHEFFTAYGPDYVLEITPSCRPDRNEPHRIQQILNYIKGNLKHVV
Experiment: biochemical
Metric Name: IC50

Any idea what its IC50 is? The molecule is Nc1ccccc1NC(=O)c1ccc(N(CCCl)CCCl)cc1
> 5 µM
